Listed below: IC50 (nM), IgGs values for each entry.
- TARGET_OR_SYSTEM: human MMP-12 (human, UniProt P39900 106-470, limits assumed)
- Sequence (P39900 106-470 limits assumed): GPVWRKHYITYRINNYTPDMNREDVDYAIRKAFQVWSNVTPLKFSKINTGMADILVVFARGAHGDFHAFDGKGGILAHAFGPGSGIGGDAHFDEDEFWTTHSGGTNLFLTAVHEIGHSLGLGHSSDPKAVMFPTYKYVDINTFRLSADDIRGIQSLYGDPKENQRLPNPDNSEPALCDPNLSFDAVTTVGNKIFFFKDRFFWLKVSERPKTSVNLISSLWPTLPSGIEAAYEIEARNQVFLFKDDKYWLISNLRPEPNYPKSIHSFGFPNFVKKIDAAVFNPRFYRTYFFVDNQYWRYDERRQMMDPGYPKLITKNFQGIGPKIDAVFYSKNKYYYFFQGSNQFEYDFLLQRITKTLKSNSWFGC
- PROCEDURE_DETAILS: cell-based or functional assay
Answer in nM, number only, no unit symbol.

Would you please look over these solved cases?
539A-M0016-H05 IgG (antibody, V domains shown) VH: EVQLLESGGGLVQPGGSLRLSCAASGFTFSWYAMSWVRQAPGKGLEWVSRIVPSGGDTGYADSVKGRFTISRDNSKNTLYLQMNSLRAEDTAVYYCATFRGIMYGDYGSSYWYFDLWGRGTLVTVSS VL: DIQMTQSPATLSLSPGERATLSCRASQSVSSYLAWYQQKPGQAPRLLIYDASNRATGIPARFSGSGSGTDFTLTISSLEPEDFAVYYCQQRSNWPLTFGGGTKVEIK: 32.9
539A-M0019-C05 IgG (antibody, V domains shown) VH: EVQLLESGGGLVQPGGSLRLSCAASGFTFSWYAMVWVRQAPGKGLEWVSYIGSSGGVTGYADSVKGRFTISRDNSKNTLYLQMNSLRAEDTAVYYCARQKRVDYYDSSGYPTNAEFDYWGQGTLVTVSS VL: QYELTQPRSVSGSPGQSVTISCTGSSSDVAGFYYVSWYQQHPGKAPKLMIRDVNDRPSGVSNRFSGSKSGNTASLTIAGLQTEDEAVYYCSSTSRSDTRVIFGGGTKLTV: 24.5
539A-M0013-G12 IgG (antibody, V domains shown, also called M0013-G12 IgG a-huMMP12) VH: EVQLLESGGGLVQPGGSLRLSCAASGFTFSWYHMFWVRQAPGKGLEWVSGISSSGGYTHYADSVKGRFTISRDNSKNTLYLQMNSLRAEDTAVYYCATREGMLYDYVWGENYMDVWGKGTTVTVSS VL: DIQMTQSPSSLSASVGDRVTITCQASQDTYNRLHWYQQKPGKAPKLLIYDAVNLNRGVPSRFRGSGSGTNYILIITNLQPEDTATYYCQHSDDLSLAFGGGTKVEIK: 4.1
539A-M0013-D11 IgG (antibody, V domains shown) VH: EVQLLESGGGLVQPGGSLRLSCAASGFTFSSYPMWWVRQAPGKGLEWVSGIVPSGGVTIYADSVKGRFTISRDNSKNTLYLQMNSLRAEDTAVYYCARVGWLASSDYYYYMDVWGKGTTVTVSS VL: DIQMTQSPSSLSASVGDRITISCQASQDIDNYLNWYQQRSGKAPKLLIYDAYNLKAGVPSRFRGSRSGTDFFLTISSLQPEDFATYYCQQSYRAPLTFGGGTKVEIK: 13.3

Proceeding to the next binder to report its IC50 (nM), IgGs.
The reported IC50 (nM), IgGs of the binder 539A-M0022-C07 IgG (antibody, V domains shown) VH: EVQLLESGGGLVQPGGSLRLSCAASGFTFSIYQMWWVRQAPGKGLEWVSSISSSGFTWYADSVKGRFTISRDNSKNTLYLQMNSLRAEDTAVYYCTTEDIGYYYGMDVWGQGTTVTVSS VL: DIQMTQSPATLSVSPGERATLSCRASQNVRNYLAWYQQKPGQAPRLLIYDASKRATGIPARFSGSGSGTDFTLTISGLEPEDFAVYYCQQRSNWPTFGPGTKVDIK was 13.2

Data credit: patent US8114968
